Data provenance is patent EP4659811A1.

- SUBJECT OF TEST: VP1 capsid protein on BKV pseudovirions of genotype IVc2 (A-66H; AB369093) (BK virus genotype IVc2 (A-66H))
- EXPERIMENTAL DETAILS: cell-based or functional assay
MEASUREMENT LABEL: Neutralization PSV IC50 (µg/mL)
Please reply with the bare figure in µg/mL and do not write the unit itself.

Lookup result for antibody G5P6 (antibody, V domains shown) VH: QVQLVQSGAEVKKPGASVKVSCKASGYTFTTHIIHWVRQAPGQRLEWMGWINAGNGNTKYSEKFQGRVTLTRDTSASTAYMELSSLRSEDTAIYYCAREDQWLGRSPLEYWGQGTLVTVSS VL: EIVLTQSPGTLSLSPGERATLSCRASQSVSSSYLAWYQHKPGQAPRLLIYGASSRATGIPDRFSGSGSGTDFTLTVSRLEPEDFAVYYCQQYGNSYPWTFGQGTKVEIK ; measured Neutralization PSV IC50: 0.0889
